Below: a set of entries, each annotated with reported REL TO ACTIVITY BEFORE PEG, AFTER PEG MODIFICATION.
target: Thrombin (Homo sapiens, UniProt P00734)
protocol: thrombin inhibition activity assay (D.4), specific activity
Format: biochemical
condition.description: cysteine-PEGylated protein relative to same protein before PEGylation
Reply: number alone, nothing else.

INSERT INTO results (molecule, observed_value) VALUES
  ('G52C (conjugate, UniProt P07093 20-398, looked up, variant G52C, PEG) Glia-derived nexin: SHFNPLSLEELGSNTGIQVFNQIVKSRPHDNIVISPHGIASVLGMLQLGADCRTKKQLAMVMRYGVNGVGKILKKINKAIVSKKNKDIVTVANAVFVKNASEIEVPFVTRNKDVFQCEVRNVNFEDPASACDSINAWVKNETRDMIDNLLSPDLIDGVLTRLVLVNAVYFKGLWKSRFQPENTKKRTFVAADGKSYQVPMLAQLSVFRCGSTSAPNDLWYNFIELPYHGESISMLIALPTESSTPLSAIIPHISTKTIDSWMSIMVPKRVQVILPKFTAVAQTDLKEPLKVLGITDMFDSSKANFAKITTGSENLHVSHILQKAKIEVSEDGTKASAATTAILIARSSPPWFIVDRPFLFFIRHNPTGAVLFMGQINKP', 2.1);

Sure, the documented REL TO ACTIVITY BEFORE PEG, AFTER PEG MODIFICATION for N304C (conjugate, UniProt P07093 20-398, looked up, variant N304C, PEG) Glia-derived nexin: SHFNPLSLEELGSNTGIQVFNQIVKSRPHDNIVISPHGIASVLGMLQLGADGRTKKQLAMVMRYGVNGVGKILKKINKAIVSKKNKDIVTVANAVFVKNASEIEVPFVTRNKDVFQCEVRNVNFEDPASACDSINAWVKNETRDMIDNLLSPDLIDGVLTRLVLVNAVYFKGLWKSRFQPENTKKRTFVAADGKSYQVPMLAQLSVFRCGSTSAPNDLWYNFIELPYHGESISMLIALPTESSTPLSAIIPHISTKTIDSWMSIMVPKRVQVILPKFTAVAQTDLKEPLKVLGITDMFDSSKACFAKITTGSENLHVSHILQKAKIEVSEDGTKASAATTAILIARSSPPWFIVDRPFLFFIRHNPTGAVLFMGQINKP is 3

Where do the numbers come from? From patent US5766897A.
